procedureSummary: Experimental lipophilicity as RM values by RPTLC
Assay type: physicochemical
Set-up: key: RM = log[(1/Rf) − 1], from Rf values by RPTLC
assayContext: methanol/water 70/30, 24 °C, average of at least 5 measurements
Reported RM (±SD) is given for each of the following compounds.

compound	RM (±SD)
O=C1C(=C/C=C\c2ccccc2)C(=O)c2ccccc21 [Compound 5]	0.158
Cc1ccc(C=C2C(=O)c3ccccc3C2=O)o1 [Compound 3]	0.014
O=C1C(=Cc2c[nH]c3ccccc23)C(=O)c2ccccc21 [Compound 12]	−0.134
O=C1C(=Cc2cccc(Oc3ccccc3)c2)C(=O)c2ccccc21 [Compound 7]	−0.196
Cc1ccsc1C=C1C(=O)c2ccccc2C1=O [Compound 2]	0.031
O=C1C(=Cc2ccc3[nH]ccc3c2)C(=O)c2ccccc21 [Compound 11]	−0.196
CN(C)c1ccc(/C=C\C=C2C(=O)c3ccccc3C2=O)cc1 [Compound 6]	−0.527
CC(C)(C)c1cc(C=C2C(=O)c3ccccc3C2=O)c(O)c(C(C)(C)C)c1 [Compound 9]	−1.038
O=C1C(=Cc2ccccc2)C(=O)c2ccccc21 [Compound 4, 2-benzylidene-1H-indene-1,3(2H)-dione]	−0.615
CC(C)(C)c1cc(C=C2C(=O)c3ccccc3C2=O)cc(C(C)(C)C)c1O [Compound 10]	−0.103
